Exercise: state measured IC50 for each of the compounds provided.
System: Hepatitis C virus
Test name: Antiviral activity against HCV infected in human Huh-7 cells assessed as reduction in viral replication measured after 48 hrs by luciferase reporter gene assay
Assay type: functional, organism-based, Hepacivirus hominis
Reported conditions: Huh-7, 48 h
Report as a plain number; the unit nM is understood.

The measured IC50 associated with `O=C(Nc1ccn([C@@H]2O[C@H](CO)[C@@H](O)C2(F)F)c(=O)n1)c1cccc2c1CCCC2` reads 161

The measured IC50 associated with `O=C(Nc1ccn([C@@H]2O[C@H](CO)[C@@H](O)C2(F)F)c(=O)n1)c1cc(Cl)cc(Cl)c1` reads 25.5

The measured IC50 associated with `Cc1ccc(C(=O)Nc2ccn([C@@H]3O[C@H](CO)[C@@H](O)C3(F)F)c(=O)n2)cc1` reads 43.1

The measured IC50 associated with `O=C(Nc1ccn([C@@H]2O[C@H](CO)[C@@H](O)C2(F)F)c(=O)n1)c1cc2c(cc1[N+](=O)[O-])OCO2` reads 46.7

The measured IC50 associated with `O=C(Nc1ccn([C@@H]2O[C@H](CO)[C@@H](O)C2(F)F)c(=O)n1)c1ccc(Cl)c(Cl)c1` reads 17.4

The measured IC50 associated with `COC(=O)N[C@H](C(=O)N1CCC[C@H]1c1ncc(-c2ccc(-c3ccc(-c4cnc([C@@H]5CCCN5C(=O)[C@@H](NC(=O)OC)C(C)C)[nH]4)cc3)cc2)[nH]1)C(C)C` reads 0.031

The measured IC50 associated with `CCc1ccc(C(=O)Nc2ccn([C@@H]3O[C@H](CO)[C@@H](O)C3(F)F)c(=O)n2)cc1` reads 58.4

====

Exercise: state measured CC50 at 96 h for each of the compounds provided.
Test name: Cytotoxicity against human BXPC-3 cells assessed as reduction in cell viability measured after 96 hrs by celltiter-glo assay
Assay type: cell-based
Reported conditions: read-out: TC50
Report as a plain number; the unit nM is understood.

The measured CC50 at 96 h associated with `O=C(Nc1ccn([C@@H]2O[C@H](CO)[C@@H](O)C2(F)F)c(=O)n1)c1ccc2c(c1)OCCO2` reads 1200

The measured CC50 at 96 h associated with `O=C(Nc1ccn([C@@H]2O[C@H](CO)[C@@H](O)C2(F)F)c(=O)n1)c1ccc2c(c1)OCO2` reads 720

The measured CC50 at 96 h associated with `Nc1ccn([C@@H]2O[C@H](CO)[C@@H](O)C2(F)F)c(=O)n1` reads 2.9

The measured CC50 at 96 h associated with `COc1cc(C(=O)Nc2ccn([C@@H]3O[C@H](CO)[C@@H](O)C3(F)F)c(=O)n2)cc(OC)c1OC` reads 1800

====

Test name: Cytotoxicity against HEK293 cells assessed as reduction in cell viability measured after 96 hrs by celltiter-glo assay
Assay type: cell-based
Reported conditions: human, read-out: TC50
Exercise: state measured CC50 at 96 h for each of the compounds provided.
Report as a plain number; the unit µM is understood.

The measured CC50 at 96 h associated with `O=C(Nc1ccn([C@@H]2O[C@H](CO)[C@@H](O)C2(F)F)c(=O)n1)c1ccc2c(c1)OCO2` reads 4.1

The measured CC50 at 96 h associated with `Nc1ccn([C@@H]2O[C@H](CO)[C@@H](O)C2(F)F)c(=O)n1` reads 0.56

The measured CC50 at 96 h associated with `O=C(Nc1ccn([C@@H]2O[C@H](CO)[C@@H](O)C2(F)F)c(=O)n1)c1ccc2c(c1)OCCO2` reads 5.6

The measured CC50 at 96 h associated with `O=C(Nc1ccn([C@@H]2O[C@H](CO)[C@@H](O)C2(F)F)c(=O)n1)c1cc(Cl)cc(Cl)c1` reads 1.2

The measured CC50 at 96 h associated with `COc1cc(C(=O)Nc2ccn([C@@H]3O[C@H](CO)[C@@H](O)C3(F)F)c(=O)n2)cc(OC)c1OC` reads 1.3

The measured CC50 at 96 h associated with `COc1cc(OC)cc(C(=O)Nc2ccn([C@@H]3O[C@H](CO)[C@@H](O)C3(F)F)c(=O)n2)c1` reads 4

====

Test system: Hepatitis C virus
Test name: Antiviral activity against HCV infected in human Huh-7 cells assessed as reduction in viral replication measured after 48 hrs by luciferase reporter gene assay
Assay type: functional, organism-based, Hepacivirus hominis
Reported conditions: Huh-7, 48 h
Property measured: pIC50
Just so you know, pIC50 here is -log10 of the concentration in molar units; reply with that number alone.

The measured pIC50 associated with `O=C(Nc1ccn([C@@H]2O[C@H](CO)[C@@H](O)C2(F)F)c(=O)n1)c1ccc2c(c1)OCO2` reads 7.22

The measured pIC50 associated with `COc1c(Cl)cc(C(=O)Nc2ccn([C@@H]3O[C@H](CO)[C@@H](O)C3(F)F)c(=O)n2)cc1Cl` reads 7.71

The measured pIC50 associated with `O=C(Nc1ccn([C@@H]2O[C@H](CO)[C@@H](O)C2(F)F)c(=O)n1)c1ccc2c(c1)OC(F)(F)O2` reads 7.33

The measured pIC50 associated with `COc1ccc(C(=O)Nc2ccn([C@@H]3O[C@H](CO)[C@@H](O)C3(F)F)c(=O)n2)cc1` reads 7.22

The measured pIC50 associated with `Cc1cc2c(cc1C(=O)Nc1ccn([C@@H]3O[C@H](CO)[C@@H](O)C3(F)F)c(=O)n1)OCCO2` reads 5.77

The measured pIC50 associated with `COc1cccc(OC)c1C(=O)Nc1ccn([C@@H]2O[C@H](CO)[C@@H](O)C2(F)F)c(=O)n1` reads 6.35

The measured pIC50 associated with `O=C(Nc1ccn([C@@H]2O[C@H](CO)[C@@H](O)C2(F)F)c(=O)n1)c1ccc2c(c1)CCCC2` reads 7.07

The measured pIC50 associated with `O=C(Nc1ccn([C@@H]2O[C@H](CO)[C@@H](O)C2(F)F)c(=O)n1)c1ccc(Cl)cc1` reads 7.42

====

Test name: Cytotoxicity against human Huh-7 cells assessed as reduction in cell viability measured after 48 hrs in presence of ENT1 inhibitor NBTI […]
Format: cell-based
Reported conditions: with NBTI (ENT1 inhibitor; concentration not stated), read-out: TC50
Property measured: CC50 at 48 h (µM)
Report as a plain number; the unit µM is understood.

The measured CC50 at 48 h associated with `Cc1ccc(C(=O)Nc2ccn([C@@H]3O[C@H](CO)[C@@H](O)C3(F)F)c(=O)n2)cc1` reads 240

The measured CC50 at 48 h associated with `COc1cc(C(=O)Nc2ccn([C@@H]3O[C@H](CO)[C@@H](O)C3(F)F)c(=O)n2)cc(OC)c1OC` reads 398

The measured CC50 at 48 h associated with `O=C(Nc1ccn([C@@H]2O[C@H](CO)[C@@H](O)C2(F)F)c(=O)n1)c1ccc2c(c1)OCO2` reads 440

The measured CC50 at 48 h associated with `CCc1ccc(C(=O)Nc2ccn([C@@H]3O[C@H](CO)[C@@H](O)C3(F)F)c(=O)n2)cc1` reads 360

====

Exercise: state measured CC50 at 48 h for each of the molecules provided.
Test name: Cytotoxicity against human Huh-7 cells assessed as reduction in cell viability measured after 48 hrs by celltiter-glo assay
Assay type: cell-based
Reported conditions: read-out: TC50
Report as a plain number; the unit µM is understood.

The measured CC50 at 48 h associated with `O=C(Nc1ccn([C@@H]2O[C@H](CO)[C@@H](O)C2(F)F)c(=O)n1)c1ccc2ccccc2c1` reads 125

The measured CC50 at 48 h associated with `O=C(Nc1ccn([C@@H]2O[C@H](CO)[C@@H](O)C2(F)F)c(=O)n1)c1ccc2c(c1)CCC2` reads 378

The measured CC50 at 48 h associated with `O=C(Nc1ccn([C@@H]2O[C@H](CO)[C@@H](O)C2(F)F)c(=O)n1)c1ccc2cc(Br)ccc2c1` reads 74

The measured CC50 at 48 h associated with `O=C(Nc1ccn([C@@H]2O[C@H](CO)[C@@H](O)C2(F)F)c(=O)n1)c1ccc2c(c1)OC(F)(F)O2` reads 188

The measured CC50 at 48 h associated with `COc1cc(C(=O)Nc2ccn([C@@H]3O[C@H](CO)[C@@H](O)C3(F)F)c(=O)n2)cc(OC)c1OC` reads 490

The measured CC50 at 48 h associated with `COc1cc(OC)cc(C(=O)Nc2ccn([C@@H]3O[C@H](CO)[C@@H](O)C3(F)F)c(=O)n2)c1` reads 962

The measured CC50 at 48 h associated with `O=C(Nc1ccn([C@@H]2O[C@H](CO)[C@@H](O)C2(F)F)c(=O)n1)c1ccc2c(c1)CCCC2` reads 132

====

Test name: Stability in pH 4 aqueous buffer assessed as parent compound remaining at 200 uM measured after 4 hrs by UV spectrophotometry
Format: physicochemical
Reported conditions: read-out: Stabilty
Exercise: state measured remaining at 4 h, 200 µM for each of the compounds provided.
Report as a plain number; the unit % is understood.

The measured remaining at 4 h, 200 µM associated with `O=C(Nc1ccn([C@@H]2O[C@H](CO)[C@@H](O)C2(F)F)c(=O)n1)c1ccc2c(c1)OCCO2` reads 100

The measured remaining at 4 h, 200 µM associated with `COc1cc(C(=O)Nc2ccn([C@@H]3O[C@H](CO)[C@@H](O)C3(F)F)c(=O)n2)cc(OC)c1OC` reads 98.6

The measured remaining at 4 h, 200 µM associated with `Nc1ccn([C@@H]2O[C@H](CO)[C@@H](O)C2(F)F)c(=O)n1` reads 98

The measured remaining at 4 h, 200 µM associated with `O=C(Nc1ccn([C@@H]2O[C@H](CO)[C@@H](O)C2(F)F)c(=O)n1)c1ccc2c(c1)OCO2` reads 100

The measured remaining at 4 h, 200 µM associated with `O=C(Nc1ccn([C@@H]2O[C@H](CO)[C@@H](O)C2(F)F)c(=O)n1)c1cc(Cl)cc(Cl)c1` reads 98.4
